Catalogue of binders with associated kon
# tested_system: T1, murine RSPO3 (R&D Systems Cat. No. 4120-RS/CF) (murine, UniProt Q2TJ95 22-277, limits assumed)
# T1 construct: also called mouse RSPO3
# T1 sequence (looked up): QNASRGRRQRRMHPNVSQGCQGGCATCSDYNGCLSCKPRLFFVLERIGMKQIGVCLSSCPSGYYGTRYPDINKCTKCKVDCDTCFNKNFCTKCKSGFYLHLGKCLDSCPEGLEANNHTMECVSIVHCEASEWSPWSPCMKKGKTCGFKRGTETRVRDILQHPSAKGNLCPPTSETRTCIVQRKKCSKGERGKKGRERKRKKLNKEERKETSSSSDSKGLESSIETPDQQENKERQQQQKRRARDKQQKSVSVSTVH
# method: SPR (BIAcore T200), RSPO3 immobilized, antibody injected, 25 C, 1:1 Langmuir
readout: kon (M⁻¹ s⁻¹)

1. chimeric 4A6 (antibody, V domains shown, Chimeric counterpart of hu4A6 with the rat 4A6 variable domains) VH: EVQLVESGGGSVQPGRSLKVSCAASGFTFSDYDMAWVRQAPKKGLEWVATIIYDGSRTYYRDSVKGRFTLSRDNTKSTLCLQMDSLRSEDTATYYCAAHDRSFDYWGQGIMVTVSS VL: DIQMTQSPASLSASLGETVSIECLASEDISNDLVWYQQKSGKSPQLLIYAASRLQDGVPSRFSGSGFGTRFSLKISGMQPEDEADYFCQQSYKYLPTFGAGTKLGLK :: 155000
2. anti-RSPO3 antibody 5D6 (WO2015/058132) (antibody, V domains shown) VH: EVQLQESGPSLVKPSQTLSLTCSVTGDSITSGYWNWIRKFPGNKFEYMGYISYSGKTYQNPSLKSRISITRDTSKNQYHLQLNSVTTEDTATYYCATYYGYGGPWFAYWGQGTLVTVSA VL: DIVLTQSPSSMYASLGERVTITCKASQDIDSYLSWFQQKPGKSPKTLIYLTNRLVDGVPSRFSGSGSGQDYSLTISSLEYEDMGIYYCLHYDEFPLTFGAGTKLEIK :: 357000
